- SYSTEM UNDER TEST: Serine/threonine-protein kinase pim-3 (Homo sapiens, UniProt Q86V86)
- PROCEDURE DETAILS: Inhibition of full-length human PIM3 using RSRHSSYPAGT as substrate assessed as residual kinase activity at 1 uM after 30 mins in presence of [gamma-33P]ATP
PROPERTY LABEL: Activity (%)

{"STRUCTURE SMILES": "O=[N+]([O-])c1cc2[nH]ncc2c2c1ncc1ccccc12", "OBSERVED RESULT": 6}
{"STRUCTURE SMILES": "Nc1cc2[nH]ncc2c2c1ncc1ccccc12", "OBSERVED RESULT": 55}
{"STRUCTURE SMILES": "c1ccc2c(c1)cnc1ccc3[nH]ncc3c12", "OBSERVED RESULT": 98}
{"STRUCTURE SMILES": "COc1ccc2c(cnc3c([N+](=O)[O-])cc4[nH]ncc4c32)c1", "OBSERVED RESULT": 8}
{"STRUCTURE SMILES": "O=[N+]([O-])c1cc2[nH]ncc2c2c1ncc1ccc(Cl)cc12", "OBSERVED RESULT": 8.9}
{"STRUCTURE SMILES": "O=[N+]([O-])c1cc2[nH]ncc2c2c1ncc1cc3c(cc12)OCO3", "OBSERVED RESULT": 18.9}
{"STRUCTURE SMILES": "Nc1cc2[nH]ncc2c2c1ncc1ccc(Cl)cc12", "OBSERVED RESULT": 50}
{"STRUCTURE SMILES": "Nc1cc2[nH]ncc2c2c1ncc1c(F)cccc12", "OBSERVED RESULT": 42}
{"STRUCTURE SMILES": "COc1ccc2c(cnc3c(N)cc4[nH]ncc4c32)c1", "OBSERVED RESULT": 60}
{"STRUCTURE SMILES": "O=[N+]([O-])c1cc2[nH]ncc2c2c1ncc1c(F)cccc12", "OBSERVED RESULT": 14}

----------
- SYSTEM UNDER TEST: Serine/threonine-protein kinase pim-1 (Homo sapiens, UniProt P11309)
- PROCEDURE DETAILS: Inhibition of full-length human PIM1 using RSRHSSYPAGT as substrate assessed as residual kinase activity at 10 uM after 30 mins in presence of [gamma-33P]ATP
- Sequence (P11309 whole entry, looked up): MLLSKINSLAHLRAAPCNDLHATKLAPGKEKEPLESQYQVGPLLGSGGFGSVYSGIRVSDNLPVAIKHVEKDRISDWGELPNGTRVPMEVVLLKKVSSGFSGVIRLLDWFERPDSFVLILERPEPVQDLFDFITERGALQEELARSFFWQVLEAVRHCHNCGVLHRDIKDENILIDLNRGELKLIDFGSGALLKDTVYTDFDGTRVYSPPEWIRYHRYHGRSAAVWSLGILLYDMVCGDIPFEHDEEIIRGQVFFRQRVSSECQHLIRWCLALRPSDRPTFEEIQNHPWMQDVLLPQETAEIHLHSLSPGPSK

{"STRUCTURE SMILES": "Nc1cc2[nH]ncc2c2c1ncc1c(F)cccc12", "READOUT UNIT": "%", "Activity": 16}
{"STRUCTURE SMILES": "COc1ccc2c(cnc3c([N+](=O)[O-])cc4[nH]ncc4c32)c1", "READOUT UNIT": "%", "Activity": 15}
{"STRUCTURE SMILES": "Nc1cc2[nH]ncc2c2c1ncc1ccc(Cl)cc12", "READOUT UNIT": "%", "Activity": 18}
{"STRUCTURE SMILES": "O=[N+]([O-])c1cc2[nH]ncc2c2c1ncc1ccccc12", "READOUT UNIT": "%", "Activity": 2.2}
{"STRUCTURE SMILES": "O=[N+]([O-])c1cc2[nH]ncc2c2c1ncc1c(F)cccc12", "READOUT UNIT": "%", "Activity": 19}
{"STRUCTURE SMILES": "O=[N+]([O-])c1cc2[nH]ncc2c2c1ncc1ccc(Cl)cc12", "READOUT UNIT": "%", "Activity": 9}
{"STRUCTURE SMILES": "COc1ccc2c(cnc3c(N)cc4[nH]ncc4c32)c1", "READOUT UNIT": "%", "Activity": 35}
{"STRUCTURE SMILES": "Nc1cc2[nH]ncc2c2c1ncc1ccccc12", "READOUT UNIT": "%", "Activity": 17}
{"STRUCTURE SMILES": "c1ccc2c(c1)cnc1ccc3[nH]ncc3c12", "READOUT UNIT": "%", "Activity": 11}
{"STRUCTURE SMILES": "O=[N+]([O-])c1cc2[nH]ncc2c2c1ncc1cc3c(cc12)OCO3", "READOUT UNIT": "%", "Activity": 15.8}

----------
- SYSTEM UNDER TEST: Serine/threonine-protein kinase pim-1 (Homo sapiens, UniProt P11309)
- PROCEDURE DETAILS: Inhibition of full-length human PIM1 using RSRHSSYPAGT as substrate assessed as residual kinase activity at 1 uM after 30 mins in presence of [gamma-33P]ATP
Class (by Activity) -- class A (below 40%), class B (40% to below 60%), class C (60% or more)

{"STRUCTURE SMILES": "Nc1cc2[nH]ncc2c2c1ncc1c(F)cccc12", "SYSTEM UNDER TEST": "Serine/threonine-protein kinase pim-1 (Homo sapiens, UniProt P11309)", "LABEL": "class C"}
{"STRUCTURE SMILES": "Nc1cc2[nH]ncc2c2c1ncc1ccccc12", "SYSTEM UNDER TEST": "Serine/threonine-protein kinase pim-1 (Homo sapiens, UniProt P11309)", "LABEL": "class B"}
{"STRUCTURE SMILES": "O=[N+]([O-])c1cc2[nH]ncc2c2c1ncc1c(F)cccc12", "SYSTEM UNDER TEST": "Serine/threonine-protein kinase pim-1 (Homo sapiens, UniProt P11309)", "LABEL": "class B"}
{"STRUCTURE SMILES": "c1ccc2c(c1)cnc1ccc3[nH]ncc3c12", "SYSTEM UNDER TEST": "Serine/threonine-protein kinase pim-1 (Homo sapiens, UniProt P11309)", "LABEL": "class B"}
{"STRUCTURE SMILES": "COc1ccc2c(cnc3c(N)cc4[nH]ncc4c32)c1", "SYSTEM UNDER TEST": "Serine/threonine-protein kinase pim-1 (Homo sapiens, UniProt P11309)", "LABEL": "class C"}
{"STRUCTURE SMILES": "Nc1cc2[nH]ncc2c2c1ncc1ccc(Cl)cc12", "SYSTEM UNDER TEST": "Serine/threonine-protein kinase pim-1 (Homo sapiens, UniProt P11309)", "LABEL": "class C"}
{"STRUCTURE SMILES": "O=[N+]([O-])c1cc2[nH]ncc2c2c1ncc1cc3c(cc12)OCO3", "SYSTEM UNDER TEST": "Serine/threonine-protein kinase pim-1 (Homo sapiens, UniProt P11309)", "LABEL": "class B"}
{"STRUCTURE SMILES": "COc1ccc2c(cnc3c([N+](=O)[O-])cc4[nH]ncc4c32)c1", "SYSTEM UNDER TEST": "Serine/threonine-protein kinase pim-1 (Homo sapiens, UniProt P11309)", "LABEL": "class A"}
{"STRUCTURE SMILES": "O=[N+]([O-])c1cc2[nH]ncc2c2c1ncc1ccc(Cl)cc12", "SYSTEM UNDER TEST": "Serine/threonine-protein kinase pim-1 (Homo sapiens, UniProt P11309)", "LABEL": "class A"}
{"STRUCTURE SMILES": "O=[N+]([O-])c1cc2[nH]ncc2c2c1ncc1ccccc12", "SYSTEM UNDER TEST": "Serine/threonine-protein kinase pim-1 (Homo sapiens, UniProt P11309)", "LABEL": "class A"}

----------
- SYSTEM UNDER TEST: Serine/threonine-protein kinase pim-3 (Homo sapiens)
- PROCEDURE DETAILS: Inhibition of full-length human PIM3 using RSRHSSYPAGT as substrate assessed as residual kinase activity at 10 uM after 30 mins in presence of [gamma-33P]ATP
Activity below 10% gives Not satisfied; Activity at or above it gives Satisfied.

{"STRUCTURE SMILES": "O=[N+]([O-])c1cc2[nH]ncc2c2c1ncc1ccc(Cl)cc12", "LABEL": "Not satisfied"}
{"STRUCTURE SMILES": "O=[N+]([O-])c1cc2[nH]ncc2c2c1ncc1c(F)cccc12", "LABEL": "Not satisfied"}
{"STRUCTURE SMILES": "O=[N+]([O-])c1cc2[nH]ncc2c2c1ncc1ccccc12", "LABEL": "Not satisfied"}
{"STRUCTURE SMILES": "c1ccc2c(c1)cnc1ccc3[nH]ncc3c12", "LABEL": "Satisfied"}
{"STRUCTURE SMILES": "Nc1cc2[nH]ncc2c2c1ncc1ccc(Cl)cc12", "LABEL": "Satisfied"}
{"STRUCTURE SMILES": "Nc1cc2[nH]ncc2c2c1ncc1ccccc12", "LABEL": "Satisfied"}

----------
What follows is a record of IC50 for Serine/threonine-protein kinase pim-1 (Homo sapiens, UniProt P11309).

{"STRUCTURE SMILES": "O=[N+]([O-])c1cc2[nH]ncc2c2c1ncc1ccccc12", "READOUT UNIT": "nM", "IC50": 70}
{"STRUCTURE SMILES": "COc1ccc2c(cnc3c([N+](=O)[O-])cc4[nH]ncc4c32)c1", "READOUT UNIT": "nM", "IC50": 120}
